Would you kindly list pIC50 for each of these compounds?
# systemTested: recombinant human renin (Homo sapiens)
# Sequence (P00797 67-406): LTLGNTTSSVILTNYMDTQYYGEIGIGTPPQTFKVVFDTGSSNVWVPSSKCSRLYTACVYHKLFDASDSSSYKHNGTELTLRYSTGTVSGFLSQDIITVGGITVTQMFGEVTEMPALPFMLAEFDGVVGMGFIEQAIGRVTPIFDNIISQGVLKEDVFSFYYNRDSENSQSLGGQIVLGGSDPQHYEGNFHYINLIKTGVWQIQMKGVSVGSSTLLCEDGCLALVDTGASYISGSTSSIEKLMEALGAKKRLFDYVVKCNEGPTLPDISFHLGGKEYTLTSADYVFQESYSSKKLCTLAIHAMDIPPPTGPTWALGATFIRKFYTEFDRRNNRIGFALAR
# assayMethodText: Primary renin inhibition assay: IC50 in buffer, 384 well MTP (AngI measured by EIA)
# recordedConditions: human tetradecapeptide (1-14) substrate, incubated at 37° C. for 3 h, AngI quantified by EIA
Numbers only, as −log10 of the molar value.

Example results:
Cc1cc(Cl)c(O[C@@H]2CCN(c3ccc([C@H]4CCNC[C@@H]4C(=O)N(Cc4cc(CNC(=O)C5CC5)ccc4Cl)C4CC4)cn3)C2)c(Cl)c1    9.42
COCCCc1ccc(Cl)c(CN(C(=O)C2=C(c3ccc(CCOc4c(Cl)cc(C)cc4Cl)cc3)C[C@@H]3CNC[C@H]2N3)C2CC2)c1 (racemic)    9.70

Switching to the query record.
Give the measured pIC50 of CNC(=O)OCCc1ccc(Cl)c(CN(C(=O)[C@H]2CNCC[C@@H]2c2ccc(N3CC[C@@H](Oc4c(Cl)cc(C)cc4Cl)C3)nc2)C2CC2)c1 .
9.41
